# method: inhibitors of Sendai virus-induced IRF3 signaling, primary screen, TLR/RLR signaling modifier project, cell-based, Sendai virus stimulus, luciferase, 10K MLSCN set (AID 602276);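 note: firefly luciferase from ISG56 promoter only with Renilla not read in this screen; 0% = Sendai virus plus DMSO and 100% = medium plus DMSO without virus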
# testSettings: HEK293 RL24 IRF3 luciferase reporter, at 10 µM, active compounds read high
The reader will find reported inhibition values listed item by item below.
I only need the number, in %, no unit after it.

Here are 8 compounds together with their reported answers.
In [3]: df
Out[3]:
                                   compound  outcomemeasure  displayunit  experimentalvalue
0           COc1cc(OC)c(NC(=O)c2ccco2)cc1Cl      inhibition            %               21.8
1              Cn1cc(Br)c(C(=O)NC2CCCCC2)n1      inhibition            %               7.35
2        O=C(NC1CCCCC1)N(Cc1ccccc1)Cc1ccco1      inhibition            %              -9.22
3        O=C(CSc1nnc(-c2ccncc2)o1)Oc1ccccc1      inhibition            %               16.3
4               S=c1[nH]nc(-c2cccc(Br)c2)o1      inhibition            %               4.14
5   CCOc1ccc2nc(SCc3ccc(C(=O)OC)o3)[nH]c2c1      inhibition            %               8.32
6  O=C(CN1C(=O)CCS(=O)(=O)c2ccccc21)Nc1cccc(F)c1      inhibition            %               1.07
7        Cn1c(SCC(=O)N2CCOCC2)nnc1-c1cnccn1      inhibition            %               3.04

Enquiry: Fill in the blank: the reported inhibition of Clc1ccc(C2=Nn3c(nnc3-c3n[nH]c4c3CCC4)SC2)cc1Cl is ____.
Return: 29.6

Enquiry: Query: inhibition; subject: Cc1oc(-c2ccccc2F)nc1CS(=O)(=O)CC(=O)NCc1ccco1
Return: 0.0639

Enquiry: So what does the record say about inhibition for COc1cc(NC(=O)C2C3C=CC(C3)C2C(=O)O)c(OC)cc1Cl (centres undefined) ?
Return: -7.81

Enquiry: Look up inhibition: COc1ccc(C)cc1NC(=O)COCC(=O)O
Return: -0.927

Enquiry: Need inhibition of CCOc1ccccc1-n1c(SCC(=O)NC2CCCC2)nnc1-c1ccoc1C , thanks.
Return: 1.09

Enquiry: Could you tell me which inhibition is on file for Cc1cccc(-n2c(O)c(C=Nc3ccccc3N)c(=O)[nH]c2=O)c1 ?
Return: 13

Enquiry: Field request: inhibition | item: CCCCC(=O)NCCc1cc2ccc(OC)cc2[nH]c1=O
Return: -3.47

Enquiry: Can you share its inhibition? I mean this compound: CCn1cc(C(=O)N2CCOCC2)c(=O)c2cc(S(=O)(=O)N(C)C3CCCCC3)ccc21
Return: 12.2

Enquiry: Looking for the measured inhibition of CCc1nnc(NC(=O)c2cc3ccccc3oc2=O)s1 , can you help?
Return: -9.54

Enquiry: Returns the measured inhibition for the input compound. Input: CCOC(=O)c1ccccc1NC(=O)c1cc2sccc2n1C
Return: -3.63
